biological target: MCH receptor (Homo sapiens, UniProt Q99705); assay: High throughput functional screening FLIPR/FDSS6000: inhibition of MCH-evoked intracellular Ca2+ changes; format: cell-based; conditions: class by percent of control at 10^-7 M or by IC50; read-out: class
Listing of recorded IC50 by entry.

COc1ccc(CNC(=O)N[C@H]2CC[C@@H](Nc3nc(N(C)C)c4ccccc4n3)CC2)cc1 [compound 48] : 50 to 200 nM
CN(C)c1nc(N[C@H]2CC[C@@H](NC(=O)Nc3ccccc3)CC2)nc2ccccc12 [compound 52] : 50 to 200 nM
CN(C)c1nc(N[C@H]2CC[C@@H](NC(=O)NC(=O)c3ccccc3)CC2)nc2ccccc12 [compound 7] : > 200 nM
Cc1ccc(NC(=O)N[C@H]2CC[C@@H](Nc3nc(N(C)C)c4ccccc4n3)CC2)cc1Cl [compound 64] : > 200 nM
CN(C)c1nc(N[C@H]2CC[C@@H](NC(=O)Nc3cc(C(F)(F)F)cc(C(F)(F)F)c3)CC2)nc2ccccc12 [compound 8] : > 200 nM
COc1ccc(NC(=O)N[C@H]2CC[C@@H](Nc3nc(N(C)C)c4ccccc4n3)CC2)cc1OC [compound 124] : < 50 nM
CN(C)c1nc(N[C@H]2CC[C@@H](NC(=O)Nc3cc(Cl)ccc3Cl)CC2)nc2ccccc12 [compound 26] : > 200 nM
CN(C)c1nc(N[C@H]2CC[C@@H](NC(=S)Nc3cc(Cl)ccc3Cl)CC2)nc2ccccc12 [compound 168] : > 200 nM

Entry Cc1cc(NC(=O)N[C@H]2CC[C@@H](Nc3nc(N(C)C)c4ccccc4n3)CC2)c([N+](=O)[O-])cc1C [compound 138] : reported IC50 = ?
> 200 nM

Further, for COc1cc(OC)c(NC(=O)N[C@H]2CC[C@@H](Nc3nc(N(C)C)c4ccccc4n3)CC2)cc1Cl [compound 834] ?
< 50 nM

Further, for CN(C)c1nc(N[C@H]2CC[C@@H](NC(=O)Oc3cccc(C(F)(F)F)c3)CC2)nc2ccccc12 [compound 849] ?
> 200 nM

Further, for CN(C)c1nc(N[C@H]2CC[C@@H](C(=O)NCc3ccc(F)cc3F)CC2)nc2ccccc12 [Example 922] ?
> 200 nM

Further, for CN(C)c1nc(N[C@H]2CC[C@@H](NC(=O)Nc3cccc(C(F)(F)F)c3F)CC2)nc2ccccc12 [compound 96] ?
> 200 nM

Further, for CCOc1ccccc1NC(=O)N[C@H]1CC[C@@H](Nc2nc(N(C)C)c3ccccc3n2)CC1 [compound 93] ?
< 50 nM

Further, for CCc1cccc(C)c1NC(=O)N[C@H]1CC[C@@H](Nc2nc(N(C)C)c3ccccc3n2)CC1 [compound 33] ?
< 50 nM

Further, for CN(C)c1nc(N[C@H]2CC[C@@H](NC(=O)Nc3c(Cl)cccc3C(F)(F)F)CC2)nc2ccccc12 [compound 89] ?
< 50 nM

Further, for Cc1ccc(Cl)c(NC(=O)N[C@H]2CC[C@@H](Nc3nc(N(C)C)c4ccccc4n3)CC2)c1 [compound 87] ?
> 200 nM

Further, for COc1cc(COC(=O)N[C@H]2CC[C@@H](Nc3nc(N(C)C)c4ccccc4n3)CC2)c([N+](=O)[O-])cc1OC [compound 848] ?
< 50 nM

Further, for CN(C)c1nc(N[C@H]2CC[C@@H](NC(=O)Nc3c(F)cc(Br)cc3Br)CC2)nc2ccccc12 [compound 76] ?
< 50 nM

Further, for CN(C)c1nc(N[C@H]2CC[C@@H](NC(=O)Nc3c(Br)cc(F)cc3Br)CC2)nc2ccccc12 [compound 83] ?
> 200 nM

====

biological target: MCH receptor (Homo sapiens); assay: High throughput functional screening FLIPR/FDSS6000: inhibition of MCH-evoked intracellular Ca2+ changes; assay type: cell-based; details: class by percent of control at 10^-7 M or by IC50; read-out: class
pIC50: −log10 of the molar value.
property measured: pIC50

The following compounds have reported results that may help.
Cc1cccc(CNC(=O)N[C@H]2CC[C@@H](Nc3nc(N(C)C)c4ccccc4n3)CC2)c1 : < 6.70
CN(C)c1nc(N[C@H]2CC[C@@H](CNC(=S)NC3CC4CCC3C4)CC2)nc2ccccc12 (relative stereo) : 6.70 to 7.30
CN(C)c1nc(N[C@H]2CC[C@@H](NC(=O)Nc3cc(Cl)ccc3[N+](=O)[O-])CC2)nc2ccccc12 : < 6.70
CCCCCCCCOC(=O)N[C@H]1CC[C@@H](Nc2nc(N(C)C)c3ccccc3n2)CC1 : < 6.70
CN(C)c1nc(N[C@H]2CC[C@@H](NC(=O)Nc3ccc(Oc4ccccc4)cc3)CC2)nc2ccccc12 : > 7.30

Give pIC50 (MCH receptor (Homo sapiens)) of the following compound: CN(C)c1nc(N[C@H]2CC[C@@H](NC(=O)Nc3ccc(F)cc3C(F)(F)F)CC2)nc2ccccc12
< 6.70

Further, for COc1ccccc1NC(=S)N[C@H]1CC[C@@H](Nc2nc(N(C)C)c3ccccc3n2)CC1 ?
> 7.30

====

target: MCH receptor (Homo sapiens); experiment: High throughput functional screening FLIPR/FDSS6000: inhibition of MCH-evoked intracellular Ca2+ changes; type: cell-based; conditions: class by percent of control at 10^-7 M or by IC50; read-out: class
Listing of recorded IC50 by entry.

CN(C)c1nc(N[C@H]2CC[C@@H](NC(=S)Nc3cccc4ccccc34)CC2)nc2ccccc12 [compound 187] : < 0.05 µM
CN(C)c1nc(N[C@H]2CC[C@@H](CNC(=S)Nc3ccc(-n4cccn4)cc3)CC2)nc2ccccc12 [compound 814] : > 0.2 µM
COc1cc(NC(=S)N[C@H]2CC[C@@H](Nc3nc(N(C)C)c4ccccc4n3)CC2)cc(OC)c1OC [compound 195] : < 0.05 µM

// moving on: another record for IC50
Give IC50 (MCH receptor (Homo sapiens)) of the following molecule: CN(C)c1nc(N[C@H]2CC[C@@H](CNC(=S)NC3CC4C=CC3C4)CC2)nc2ccccc12 (relative stereo) [compound 799]
0.05 to 0.2 µM

====

target: MCH receptor (Homo sapiens, UniProt Q99705); assay: High throughput functional screening FLIPR/FDSS6000: inhibition of MCH-evoked intracellular Ca2+ changes; type: cell-based; conditions: class by percent of control at 10^−7 M or by IC50; read-out: class
property measured: IC50

The following compounds have reported results that may help.
CN(C)c1nc(N[C@H]2CC[C@@H](C(=O)NCc3cccc(OC(F)(F)F)c3)CC2)nc2ccccc12 [Example 1186] : < 50 nM
Cc1cc(Cl)cc(Cl)c1CNC(=O)[C@H]1CC[C@@H](Nc2nc(N(C)C)c3ccccc3n2)CC1 [Example 1187] : 50 to 200 nM
CN(C)c1nc(N[C@H]2CC[C@@H](C(=O)NCc3cc(C(F)(F)F)ccc3Cl)CC2)nc2ccccc12 [Example 1183] : < 50 nM
CN(C)c1nc(N[C@H]2CC[C@@H](C(=O)NCc3ccc(Cl)cc3F)CC2)nc2ccccc12 [Example 1164] : < 50 nM
Cc1ccc(CNC(=O)[C@H]2CC[C@@H](Nc3nc(N(C)C)c4ccccc4n3)CC2)cc1F [Example 1143] : 50 to 200 nM
CN(C)c1nc(N[C@H]2CC[C@@H](NC(=O)c3ccc(Oc4ccc(Cl)cc4)nc3)CC2)nc2ccccc12 [Example 1060] : < 50 nM
C[C@@H](NC(=O)[C@H]1CC[C@@H](Nc2nc(N(C)C)c3ccccc3n2)CC1)c1ccc(Cl)cc1 [Example 1139] : < 50 nM
CN(C)c1nc(N[C@H]2CC[C@@H](C(=O)NCc3ccc(S(C)(=O)=O)cc3)CC2)nc2ccccc12 [Example 1195] : < 50 nM
COc1cc(OC)cc(C(=O)NC[C@@H]2CC[C@H](Nc3nc(N(C)C)c4ccccc4n3)C2)c1 [Example 1120] : < 50 nM
CN(C)c1nc(N[C@H]2CC[C@@H](C(=O)NCc3cccc(C(F)(F)F)c3F)CC2)nc2ccccc12 [Example 1177] : < 50 nM

Entry CN(C)c1nc(N[C@H]2CC[C@@H](C(=O)NCc3ccc(Cl)nc3)CC2)nc2ccccc12 [Example 1136] : reported IC50 = ?
< 50 nM

Further, for CN(C)c1nc(N[C@H]2CC[C@@H](NC(=O)c3ccc(Oc4ccc(F)c(Cl)c4)nc3)CC2)nc2ccccc12 [Example 1070] ?
50 to 200 nM

Further, for CN(C)c1nc(N[C@H]2CC[C@@H](NC(=O)CNc3ccc(Cl)cc3)CC2)nc2ccccc12 [Example 1089] ?
< 50 nM

====

target: MCH receptor (Homo sapiens); assay: High throughput functional screening FLIPR/FDSS6000: inhibition of MCH-evoked intracellular Ca2+ changes; type: cell-based; conditions: class by percent of control at 10^-7 M or by IC50; read-out: class
pIC50: −log10 of the molar value.
property measured: pIC50

The following compounds have reported results that may help.
CN(C)c1nc(N[C@H]2CC[C@@H](NC(=O)NC(c3ccccc3)c3ccccc3)CC2)nc2ccccc12 : > 7.30
COc1ccc(NC(=S)N[C@H]2CC[C@@H](Nc3nc(N(C)C)c4ccccc4n3)CC2)cc1 : 6.70 to 7.30

Entry CSc1ccc(NC(=O)N[C@H]2CC[C@@H](Nc3nc(N(C)C)c4ccccc4n3)CC2)cc1 : reported pIC50 = ?
> 7.30

Further, for COc1cc(NC(=O)N[C@H]2CC[C@@H](Nc3nc(N(C)C)c4ccccc4n3)CC2)cc(OC)c1OC ?
> 7.30
